Attribution: patent US4451399A

Collected concentration at 0.5 h values appear next to each entry.
Test: Concentration in blood after oral administration to mice (oral absorption)
Format: in vivo
Details: Mouse (ICR 5W male), oral 50 mg/kg, 30 minutes
REPORTED METRIC: concentration at 0.5 h (µg/mL)

molecule="CCOC(=O)c1nc[nH]c1C(=O)N[C@@H](C(=O)N[C@@H]1C(=O)N2[C@@H]1SC(C)(C)[C@@H]2C(=O)O)c1ccccc1 [Example 13]" data_value=340
molecule="CC1(C)S[C@@H]2[C@H](NC(=O)[C@H](N)c3ccccc3)C(=O)N2[C@H]1C(=O)O [Ampicillin, reference compound]" data_value=81

* * *

Collected MIC values appear next to each entry.
Test system: Pseudomonas aeruginosa AJ 2116
Experiment: Minimum Inhibitory Concentration (MIC) against Pseudomonas aeruginosa AJ 2116 in a culture
Format: cell-based
Settings: AJ2116, minimum concentration required to inhibit growth of test organism in a culture
REPORTED METRIC: MIC (µg/mL)

compound=CC1(C)S[C@@H]2[C@H](NC(=O)[C@H](NC(=O)c3[nH]cnc3Cl)c3ccccc3)C(=O)N2[C@H]1C(=O)O data_value=25
compound="CC1(C)S[C@@H]2[C@H](NC(=O)C(C(=O)O)c3ccccc3)C(=O)N2[C@H]1C(=O)O (stereo partly drawn) [Carbenicillin, reference compound]" data_value=100
compound=Cc1nc(S)[nH]c1C(=O)N[C@@H](C(=O)N[C@@H]1C(=O)N2[C@@H]1SC(C)(C)[C@@H]2C(=O)O)c1ccccc1 data_value=25

* * *

Test system: Pseudomonas aeruginosa AJ 2116
Test: Minimum Inhibitory Concentration (MIC) against Pseudomonas aeruginosa AJ 2116 in a culture
Type: cell-based
Conditions: AJ2116, minimum concentration required to inhibit growth of test organism in a culture
Collected MIC values appear next to each entry.
REPORTED METRIC: MIC

compound=CC1(C)S[C@@H]2[C@H](NC(=O)[C@H](NC(=O)c3[nH]cnc3[N+](=O)[O-])c3ccccc3)C(=O)N2[C@H]1C(=O)O reported_metric=MIC data_value="12.5 µg/mL"
compound=CCOC(=O)c1nc[nH]c1C(=O)N[C@@H](C(=O)N[C@@H]1C(=O)N2[C@@H]1SC(C)(C)[C@@H]2C(=O)O)c1ccccc1 reported_metric=MIC data_value="25 µg/mL"
compound="CC1(C)S[C@@H]2[C@H](NC(=O)[C@H](N)c3ccccc3)C(=O)N2[C@H]1C(=O)O [Ampicillin, reference compound]" reported_metric=MIC data_value="> 500 µg/mL"

* * *

Collected concentration at 1 h values appear next to each entry.
Test: Concentration in blood after oral administration to mice (oral absorption)
Type: in vivo
Settings: Mouse (ICR 5W male), oral 50 mg/kg, 60 minutes
REPORTED METRIC: concentration at 1 h (µg/mL)

compound="CC1(C)S[C@@H]2[C@H](NC(=O)[C@H](N)c3ccccc3)C(=O)N2[C@H]1C(=O)O [Ampicillin, reference compound]" reported_metric="concentration at 1 h" data_value=306
compound=CCOC(=O)c1nc[nH]c1C(=O)N[C@@H](C(=O)N[C@@H]1C(=O)N2[C@@H]1SC(C)(C)[C@@H]2C(=O)O)c1ccccc1 reported_metric="concentration at 1 h" data_value=97

* * *

Experiment: Concentration in blood after oral administration to mice (oral absorption)
Type: in vivo
Conditions: Mouse (ICR 5W male), oral 50 mg/kg, 90 minutes
REPORTED METRIC: concentration at 1.5 h (ng/mL)

compound=CCOC(=O)c1nc[nH]c1C(=O)N[C@@H](C(=O)N[C@@H]1C(=O)N2[C@@H]1SC(C)(C)[C@@H]2C(=O)O)c1ccccc1 data_value=40000
compound="CC1(C)S[C@@H]2[C@H](NC(=O)[C@H](N)c3ccccc3)C(=O)N2[C@H]1C(=O)O [Ampicillin, reference compound]" data_value=41000
